Test system: AMO-1 human multiple myeloma tumor cell line
Test: AMO-1 cell viability assay (CellTiter-Glo, 24 hours)
Format: cell-based
Conditions: Homo sapiens, AMO1, 24 h, read-out: AMO-1 Viability IC50 (μM, 10% FBS), 10% FBS, 24 hours of compound treatment
We label by threshold. Values of IC50 strictly beneath 0.002 µM are satisfied. Values of 0.002 µM and up are not satisfied.

>>> cat("Cc1c(Cl)c2c(Cl)c(C)c1-c1c(-c3ccc(F)cc3)sc3ncnc(c13)O[C@@H](C(=O)O)Cc1cc(ccc1OCc1ccnc(N3CCC4(CCCNC4=O)CC3)n1)OC[C@@H](CN1CCN(C)CC1)O2")
"not satisfied"
>>> cat("COCCOCCOCCOCCOCC1(F)CC=C(c2nccc(COc3ccc4cc3C[C@H](C(=O)O)Oc3ncnc5sc(-c6ccc(F)cc6)c(c35)-c3c(C)c(Cl)c(c(Cl)c3C)O[C@H](CN3CCN(C)CC3)CO4)n2)CC1 (single isomer, unassigned)")
"satisfied"
>>> cat("Cc1c(Cl)c2c(Cl)c(C)c1-c1c(-c3ccc(F)cc3)sc3ncnc(c13)O[C@@H](C(=O)O)Cc1cc(ccc1OCc1ccnc(C3CCS(=O)(=O)CC3)n1)OC[C@@H](CN1CCN(C)CC1)O2")
"not satisfied"
>>> cat("CO[C@H]1O[C@H](COc2ccc(-c3nccc(COc4ccc5cc4C[C@H](C(=O)O)Oc4ncnc6sc(-c7ccc(F)cc7)c(c46)-c4ccc(c(Cl)c4C)O[C@H](CN4CCN(C)CC4)CO5)n3)cc2)[C@@H](OC)[C@H](OC)[C@@H]1OC")
"satisfied"
>>> cat("COCCOCCOCCOCC1(c2nccc(COc3ccc4cc3C[C@H](C(=O)O)Oc3ncnc5sc(-c6ccc(F)cc6)c(c35)-c3c(C)c(Cl)c(c(Cl)c3C)O[C@H](CN3CCN(C)CC3)CO4)n2)CCC1")
"satisfied"
>>> cat("COCCOCCOC[C@]1(F)CC[C@@H](c2nccc(COc3ccc4cc3C[C@H](C(=O)O)Oc3ncnc5sc(-c6ccc(F)cc6)c(c35)-c3c(C)c(Cl)c(c(Cl)c3C)O[C@H](CN3CCN(C)CC3)CO4)n2)CC1")
"satisfied"
>>> cat("COCCOCCOCCOCCN(CCOCCOCCOCCOC)c1nccc(COc2ccc3cc2C[C@H](C(=O)O)Oc2ncnc4sc(-c5ccc(F)cc5)c(c24)-c2c(C)c(Cl)c(c(Cl)c2C)O[C@H](CN2CCN(C)CC2)CO3)n1")
"not satisfied"
>>> cat("COCCOCCO[C@]1(c2nccc(COc3ccc4cc3C[C@H](C(=O)O)Oc3ncnc5sc(-c6ccc(F)cc6)c(c35)-c3c(C)c(Cl)c(c(Cl)c3C)O[C@H](CN3CCN(C)CC3)CO4)n2)CC[C@@H](OCC2COCCO2)CC1 (some centres unmarked)")
"not satisfied"
